test-target: T1, human FcRn/b2M (human, UniProt P61769 21-119, biotinylated)
T1 construct: bought recombinant biotinylated protein (ACRO FCM-H82W4 or Immunitrack ITF01); also called hFcRn; hFcRn/hb2M
T1 sequence (chain, as listed by the source limits assumed, chain 1 of 2): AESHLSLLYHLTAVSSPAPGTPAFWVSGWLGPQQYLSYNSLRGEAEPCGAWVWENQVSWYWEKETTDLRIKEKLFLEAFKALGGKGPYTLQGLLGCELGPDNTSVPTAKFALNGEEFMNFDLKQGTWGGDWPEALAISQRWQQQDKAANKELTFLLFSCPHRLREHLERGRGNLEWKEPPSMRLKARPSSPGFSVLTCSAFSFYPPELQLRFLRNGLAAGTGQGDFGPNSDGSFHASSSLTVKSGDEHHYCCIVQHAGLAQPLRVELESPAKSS
T1 sequence (P61769 21-119 limits assumed, chain 2 of 2): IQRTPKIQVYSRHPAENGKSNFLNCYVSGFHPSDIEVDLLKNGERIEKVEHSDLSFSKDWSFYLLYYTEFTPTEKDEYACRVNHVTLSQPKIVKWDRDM
measurement-protocol: SPR pH 6.0;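 further: surface plasmon resonance kinetics at 25 °C, diluted periplasmic extracts injected over immobilized ligand surfaces, 120 s association then 600–3600 s dissociation, running buffer containing 150 mM NaCl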
observed-property: koff (s⁻¹)
Numbers only, in s⁻¹.

Check out these entries, answers already filled in.
binder	observed-property	quantitative-result
T0263018B11 T57L (VHH, name in Kabat numbering, FLAG3-His6 tagged) VHH: EVQLVESGGGVVQPGGSLRLSCAASGFTFSSYAMYWVRQAPGKGLEWVSAISSGGGSLDYADSVKGRFTISRDNSKNTLYLQMNSLRPEDTALYYCAADTLYTSLTWYSYWGQGTLVTVSS	koff	0.0011
T0263018B11 W100cG (VHH, name in Kabat numbering, FLAG3-His6 tagged) VHH: EVQLVESGGGVVQPGGSLRLSCAASGFTFSSYAMYWVRQAPGKGLEWVSAISSGGGSTDYADSVKGRFTISRDNSKNTLYLQMNSLRPEDTALYYCAADTLYTSLTGYSYWGQGTLVTVSS	koff	0.0092
T0263018B11 Y35F (VHH, name in Kabat numbering, FLAG3-His6 tagged) VHH: EVQLVESGGGVVQPGGSLRLSCAASGFTFSSYAMFWVRQAPGKGLEWVSAISSGGGSTDYADSVKGRFTISRDNSKNTLYLQMNSLRPEDTALYYCAADTLYTSLTWYSYWGQGTLVTVSS	koff	0.0043

Parameters: items (list). Returns: koff for each item.
1. T0263018B11 S56T (VHH, name in Kabat numbering, FLAG3-His6 tagged) VHH: EVQLVESGGGVVQPGGSLRLSCAASGFTFSSYAMYWVRQAPGKGLEWVSAISSGGGTTDYADSVKGRFTISRDNSKNTLYLQMNSLRPEDTALYYCAADTLYTSLTWYSYWGQGTLVTVSS
2. T0263018B11 S30K (VHH, name in Kabat numbering, FLAG3-His6 tagged) VHH: EVQLVESGGGVVQPGGSLRLSCAASGFTFKSYAMYWVRQAPGKGLEWVSAISSGGGSTDYADSVKGRFTISRDNSKNTLYLQMNSLRPEDTALYYCAADTLYTSLTWYSYWGQGTLVTVSS
3. T0263018B11 S52Q (VHH, name in Kabat numbering, FLAG3-His6 tagged) VHH: EVQLVESGGGVVQPGGSLRLSCAASGFTFSSYAMYWVRQAPGKGLEWVSAIQSGGGSTDYADSVKGRFTISRDNSKNTLYLQMNSLRPEDTALYYCAADTLYTSLTWYSYWGQGTLVTVSS
4. T0263018B11 S52T (VHH, name in Kabat numbering, FLAG3-His6 tagged) VHH: EVQLVESGGGVVQPGGSLRLSCAASGFTFSSYAMYWVRQAPGKGLEWVSAITSGGGSTDYADSVKGRFTISRDNSKNTLYLQMNSLRPEDTALYYCAADTLYTSLTWYSYWGQGTLVTVSS
5. T0263018B11 T57M (VHH, name in Kabat numbering, FLAG3-His6 tagged) VHH: EVQLVESGGGVVQPGGSLRLSCAASGFTFSSYAMYWVRQAPGKGLEWVSAISSGGGSMDYADSVKGRFTISRDNSKNTLYLQMNSLRPEDTALYYCAADTLYTSLTWYSYWGQGTLVTVSS
6. T0263018B11 T57E (VHH, name in Kabat numbering, FLAG3-His6 tagged) VHH: EVQLVESGGGVVQPGGSLRLSCAASGFTFSSYAMYWVRQAPGKGLEWVSAISSGGGSEDYADSVKGRFTISRDNSKNTLYLQMNSLRPEDTALYYCAADTLYTSLTWYSYWGQGTLVTVSS
7. T0263018B11 T28L (VHH, name in Kabat numbering, FLAG3-His6 tagged) VHH: EVQLVESGGGVVQPGGSLRLSCAASGFLFSSYAMYWVRQAPGKGLEWVSAISSGGGSTDYADSVKGRFTISRDNSKNTLYLQMNSLRPEDTALYYCAADTLYTSLTWYSYWGQGTLVTVSS

*A*
1. 0.0013
2. 0.0078
3. 0.0067
4. 0.0019
5. 0.00098
6. 0.00076
7. 0.0018

Parameters: items (list). Returns: koff for each item.
1. T0263018B11 S52G (VHH, name in Kabat numbering, FLAG3-His6 tagged) VHH: EVQLVESGGGVVQPGGSLRLSCAASGFTFSSYAMYWVRQAPGKGLEWVSAIGSGGGSTDYADSVKGRFTISRDNSKNTLYLQMNSLRPEDTALYYCAADTLYTSLTWYSYWGQGTLVTVSS
2. T0263018B11 S100M (VHH, name in Kabat numbering, FLAG3-His6 tagged) VHH: EVQLVESGGGVVQPGGSLRLSCAASGFTFSSYAMYWVRQAPGKGLEWVSAISSGGGSTDYADSVKGRFTISRDNSKNTLYLQMNSLRPEDTALYYCAADTLYTMLTWYSYWGQGTLVTVSS

*A*
1: 0.00039; 2: 0.00056

Parameters: items (list). Returns: koff for each item.
1. T0263018B11 S52aM (VHH, name in Kabat numbering, FLAG3-His6 tagged) VHH: EVQLVESGGGVVQPGGSLRLSCAASGFTFSSYAMYWVRQAPGKGLEWVSAISMGGGSTDYADSVKGRFTISRDNSKNTLYLQMNSLRPEDTALYYCAADTLYTSLTWYSYWGQGTLVTVSS
2. T0263018B11 G26Y (VHH, name in Kabat numbering, FLAG3-His6 tagged) VHH: EVQLVESGGGVVQPGGSLRLSCAASYFTFSSYAMYWVRQAPGKGLEWVSAISSGGGSTDYADSVKGRFTISRDNSKNTLYLQMNSLRPEDTALYYCAADTLYTSLTWYSYWGQGTLVTVSS

*A*
1: 0.00048; 2: 0.00065

*Q* # query: koff of entry T0263018B11 S52aP (VHH, name in Kabat numbering, FLAG3-His6 tagged) VHH: EVQLVESGGGVVQPGGSLRLSCAASGFTFSSYAMYWVRQAPGKGLEWVSAISPGGGSTDYADSVKGRFTISRDNSKNTLYLQMNSLRPEDTALYYCAADTLYTSLTWYSYWGQGTLVTVSS
*A* 0.00054
